pIC50: −log10 of the molar value.
We begin with pIC50 values for Cytosolic phospholipase A2 (Homo sapiens), as collected from the published literature.

[
  {
    "compound": "O=C1NC(=O)/C(=C/c2ccc(CN(C[C@@H]3C[C@@H](OCc4ccccc4-c4ccccc4)CN3C(=O)c3ccccc3C(=O)c3ccc(F)cc3)C(=O)c3ccccc3)cc2)S1",
    "test.system": "Cytosolic phospholipase A2 (Homo sapiens)",
    "relation.qualifier": "=",
    "pIC50": 5.89
  },
  {
    "compound": "O=C(O)c1ccc(OCCc2c(CCNS(=O)(=O)c3cccc(C(F)(F)F)c3)n(C(c3ccccc3)c3ccccc3)c3ccc(Cl)cc23)cc1",
    "test.system": "Cytosolic phospholipase A2 (Homo sapiens)",
    "relation.qualifier": "=",
    "pIC50": 6.40
  },
  {
    "compound": "Cc1nc(S(=O)(=O)NCCc2c(CCOc3ccc(C(=O)O)cc3)c3cc(Cl)ccc3n2C(c2ccccc2)c2ccccc2)cn1C",
    "test.system": "Cytosolic phospholipase A2 (Homo sapiens)",
    "relation.qualifier": "=",
    "pIC50": 6.10
  },
  {
    "compound": "Cc1nn(C)c(C)c1S(=O)(=O)NCCc1c(CCOc2ccc(C(=O)O)cc2)c2cc(Cl)ccc2n1C(c1ccccc1)c1ccccc1",
    "test.system": "Cytosolic phospholipase A2 (Homo sapiens)",
    "relation.qualifier": "=",
    "pIC50": 6.35
  },
  {
    "compound": "Cc1nc(S(=O)(=O)NCCc2c(CCCc3ccc(C(=O)O)cc3)c3cc(Cl)ccc3n2C(c2ccccc2)c2ccccc2)cn1C",
    "test.system": "Cytosolic phospholipase A2 (Homo sapiens)",
    "relation.qualifier": "=",
    "pIC50": 6.30
  },
  {
    "compound": "O=C1NC(=O)/C(=C/c2ccc(C(=O)NC[C@@H]3C[C@@H](SC(c4ccccc4)(c4ccccc4)c4ccccc4)CN3C(=O)c3ccccc3C(=O)c3ccc(F)cc3F)cc2)S1",
    "test.system": "Cytosolic phospholipase A2 (Homo sapiens)",
    "relation.qualifier": "=",
    "pIC50": 8.43
  },
  {
    "compound": "O=C1NC(=O)/C(=C/c2ccc(S(=O)(=O)NC[C@@H]3C[C@@H](SCc4ccccc4-c4ccccc4)CN3C(=O)c3ccccc3C(=O)c3ccc(F)cc3)cc2)S1",
    "test.system": "Cytosolic phospholipase A2 (Homo sapiens)",
    "relation.qualifier": "=",
    "pIC50": 7.26
  },
  {
    "compound": "COc1cccc(-c2cccc(O[C@@H]3C[C@@H](CNC(=O)c4ccc(/C=C5\\SC(=O)NC5=O)cc4)N(C(=O)c4ccccc4C(=O)c4ccc(F)cc4)C3)c2)c1",
    "test.system": "Cytosolic phospholipase A2 (Homo sapiens)",
    "relation.qualifier": "=",
    "pIC50": 7.43
  },
  {
    "compound": "Cc1ccc(C(=O)c2ccccc2C(=O)N2C[C@H](OCc3ccccc3-c3ccccc3)C[C@H]2C(=O)Nc2ccc(/C=C3\\SC(=S)NC3=O)cc2)cc1",
    "test.system": "Cytosolic phospholipase A2 (Homo sapiens)",
    "relation.qualifier": "=",
    "pIC50": 6.85
  },
  {
    "compound": "COc1ccc(OC)c(SCS(=O)(=O)NCCc2c(CCOc3ccc(C(=O)O)cc3)c3cc(Cl)ccc3n2C(c2ccccc2)c2ccccc2)c1",
    "test.system": "Cytosolic phospholipase A2 (Homo sapiens)",
    "relation.qualifier": "=",
    "pIC50": 6.34
  },
  {
    "compound": "CC(C)Oc1cc(OCCc2c(CCNS(=O)(=O)Cc3ccc(Cl)c(Cl)c3)n(C(c3ccccc3)c3ccccc3)c3ccc(Cl)cc23)ccc1C(=O)O",
    "test.system": "Cytosolic phospholipase A2 (Homo sapiens)",
    "relation.qualifier": "<",
    "pIC50": 5.70
  },
  {
    "compound": "Cc1cccc(C)c1SCS(=O)(=O)NCCc1c(CCOc2ccc(C(=O)O)cc2)c2cc(Cl)ccc2n1C(c1ccccc1)c1ccccc1",
    "test.system": "Cytosolic phospholipase A2 (Homo sapiens)",
    "relation.qualifier": "=",
    "pIC50": 6.30
  },
  {
    "compound": "O=C1NC(=O)/C(=C/c2ccc(C(=O)NC[C@@H]3C[C@@H](Oc4ccc(/C=C/c5ccccc5)cc4)CN3C(=O)c3ccccc3C(=O)c3ccc(F)cc3)cc2)S1",
    "test.system": "Cytosolic phospholipase A2 (Homo sapiens)",
    "relation.qualifier": "=",
    "pIC50": 7.30
  },
  {
    "compound": "O=C1NC(=O)/C(=C/c2ccc(C(=O)NC[C@@H]3C[C@H](OC(c4ccccc4)c4ccccc4)CN3C(=O)c3ccc(CN4CCCC4=O)cc3)cc2)S1",
    "test.system": "Cytosolic phospholipase A2 (Homo sapiens)",
    "relation.qualifier": "=",
    "pIC50": 5.00
  },
  {
    "compound": "CC(=O)Nc1nc(C)c(S(=O)(=O)N2C[C@@H](SCc3ccccc3)C[C@H]2C(=O)Nc2ccc(/C=C3\\SC(=S)NC3=O)cc2)s1",
    "test.system": "Cytosolic phospholipase A2 (Homo sapiens)",
    "relation.qualifier": "=",
    "pIC50": 5.07
  },
  {
    "compound": "CN(Cc1ccc(/C=C2\\SC(=S)NC2=O)cc1)C[C@@H]1C[C@@H](OCc2ccccc2-c2ccccc2)CN1C(=O)c1ccccc1C(=O)c1ccc(F)cc1",
    "test.system": "Cytosolic phospholipase A2 (Homo sapiens)",
    "relation.qualifier": "=",
    "pIC50": 5.27
  },
  {
    "compound": "COc1ccc(C(=O)c2ccc(F)cc2F)c(C(=O)N2CC(N(CC(C)C)C(c3ccccc3)c3ccccc3)CC2CNC(=O)c2ccc(C=C3SC(=O)NC3=O)cc2)c1 (centres unmarked)",
    "test.system": "Cytosolic phospholipase A2 (Homo sapiens)",
    "relation.qualifier": "=",
    "pIC50": 7.54
  },
  {
    "compound": "CN(C(=O)[C@@H]1C[C@@H](OCc2ccccc2-c2ccccc2)CN1C(=O)c1ccccc1C(=O)c1ccc(F)cc1)c1ccc(/C=C2\\SC(=O)NC2=O)cc1",
    "test.system": "Cytosolic phospholipase A2 (Homo sapiens)",
    "relation.qualifier": "=",
    "pIC50": 5.62
  },
  {
    "compound": "O=C(O)c1ccc(OCCc2c(CCNS(=O)(=O)CSc3ccc(Cl)cc3Cl)n(C(c3ccccc3)c3ccccc3)c3ccc(Cl)cc23)cc1",
    "test.system": "Cytosolic phospholipase A2 (Homo sapiens)",
    "relation.qualifier": "=",
    "pIC50": 6.38
  },
  {
    "compound": "CC(C)S(=O)(=O)NCCc1c(CCOc2ccc(C(=O)O)cc2)c2cc(Cl)ccc2n1C(c1ccccc1)c1ccccc1",
    "test.system": "Cytosolic phospholipase A2 (Homo sapiens)",
    "relation.qualifier": "=",
    "pIC50": 5.70
  },
  {
    "compound": "O=C1NC(=O)C(=C(CO)c2ccc(NC(=O)C3CC(OC(c4ccccc4)(c4ccccc4)c4ccccc4)CN3C(=O)c3ccccc3)cc2)S1 (centres unmarked)",
    "test.system": "Cytosolic phospholipase A2 (Homo sapiens)",
    "relation.qualifier": "=",
    "pIC50": 5.46
  },
  {
    "compound": "O=C1NC(=O)/C(=C/c2ccc(NC(=O)[C@@H]3C[C@@H](OCc4ccccc4-c4ccccc4)CN3C(=O)c3ccccc3C(=O)c3ccc(Cl)cc3)cc2)S1",
    "test.system": "Cytosolic phospholipase A2 (Homo sapiens)",
    "relation.qualifier": "=",
    "pIC50": 6.38
  },
  {
    "compound": "O=C(O)c1ccc(CCCc2c(CCNS(=O)(=O)c3ccc(N4CCOCC4)nc3)n(C(c3ccccc3)c3ccccc3)c3ccc(Cl)cc23)cc1",
    "test.system": "Cytosolic phospholipase A2 (Homo sapiens)",
    "relation.qualifier": "=",
    "pIC50": 6.49
  }
]
